Collected from the literature: IC50 of various molecules toward Tyrosine-protein kinase JAK2 (Homo sapiens, UniProt O60674).

Endpoint output: IC50 of COc1nccc(-c2cnc3[nH]ccc3c2N[C@@H]2CCCN(C(=O)CC#N)C2)n1 . Value?
10 to 100 nM

Endpoint output: IC50 of Cc1cnc(Nc2ccc[nH]c2=O)nc1N[C@H]1CC[C@H](CC#N)CC1 . Value?
< 100 nM

Endpoint output: IC50 of O=c1[nH]c2cc(F)c(-c3cnc4ccc(F)cn34)nc2n1C1CCOCC1 . Value?
< 100 nM

Endpoint output: IC50 of CCS(=O)(=O)N1CC(CC#N)(n2cc(-c3ccnc(Nc4ccc(C(=O)N5CCN(C)CC5)cc4)n3)cn2)C1 . Value?
< 100 nM

Endpoint output: IC50 of COc1cc(N2CCNCC2)ccc1Nc1ncc2ccn(S(=O)(=O)c3cccc4cccnc34)c2n1 . Value?
> 1000 nM

Endpoint output: IC50 of CN(c1ccccc1Cn1ccc2cnc(Nc3ccc(N4CCOCC4)cc3)nc21)S(C)(=O)=O . Value?
< 20 nM

Endpoint output: IC50 of CCc1cc(O)c(F)cc1-c1cc2[nH]nc(-n3cccn3)c2c(NCc2ccccc2N(C)S(C)(=O)=O)n1 . Value?
23.6 nM

Endpoint output: IC50 of O=C1NCCCCOCc2cc(cc(N3CCOCC3)c2)Nc2nccc(n2)-c2ccc1cc2F . Value?
11 to 100 nM

* * *

Collected from the literature: pIC50 of various compounds toward Tyrosine-protein kinase JAK2 (Homo sapiens, UniProt O60674).
pIC50: −log10 of the molar value.

Given the entry COc1cc(Nc2ncnc(-c3ccc(O[C@H]4CCN(C(=O)[C@H](O)CO)C[C@H]4F)c(C#N)c3)n2)ccc1N1CCN(C2COC2)CC1 , what pIC50 was observed with Tyrosine-protein kinase JAK2 (Homo sapiens, UniProt O60674)?
7.32

Given the entry Cc1ccc(NC(=O)c2ccc(F)c(C(F)(F)F)c2)cc1-c1ccc2[nH]c3ncncc3c2c1 , what pIC50 was observed with Tyrosine-protein kinase JAK2 (Homo sapiens, UniProt O60674)?
≥ 6.30

Given the entry CCS(=O)(=O)N1CCC(CC(CC#N)n2cc(-c3nc(Nc4ccc(N5CCOCC5)cc4)ncc3C)cn2)CC1 (racemic) , what pIC50 was observed with Tyrosine-protein kinase JAK2 (Homo sapiens, UniProt O60674)?
> 7.00

Given the entry Cn1cc(-c2cc3nccn3c(-c3cnn(C4(CCF)CN(S(=O)(=O)CC(F)(F)F)C4)c3)n2)cn1 , what pIC50 was observed with Tyrosine-protein kinase JAK2 (Homo sapiens, UniProt O60674)?
6.00 to 7.00

* * *

pIC50: −log10 of the molar value.
Collected from the literature: pIC50 of various molecules toward Tyrosine-protein kinase JAK2 (Homo sapiens, UniProt O60674).

Given the entry CCS(=O)(=O)N1CC(CC#N)(n2cc(-c3nc(Nc4ccc(S(C)(=O)=O)cc4)nc4sccc34)cn2)C1 , what pIC50 was observed with Tyrosine-protein kinase JAK2 (Homo sapiens, UniProt O60674)?
> 7.30

Given the entry COCCN1CC(COc2ccc(-c3ncnc(Nc4ccc(N5CCN(C6COC6)CC5)cc4)n3)cc2C#N)CC1=O (centres unmarked) , what pIC50 was observed with Tyrosine-protein kinase JAK2 (Homo sapiens, UniProt O60674)?
≤ 6.00

Given the entry CCOC(=O)Cn1cc(Nc2ncc3ccn(CC(C(C)C)C(C)C)c3n2)cn1 , what pIC50 was observed with Tyrosine-protein kinase JAK2 (Homo sapiens, UniProt O60674)?
> 7.00

Given the entry Cn1cc(-c2cc3nccn3c(-c3cnn(C4(CC#N)CC5(COC5)C4)c3)n2)cn1 , what pIC50 was observed with Tyrosine-protein kinase JAK2 (Homo sapiens, UniProt O60674)?
7.00 to 8.00

Given the entry N#CCC1(n2cc(-c3ncnc4[nH]ccc34)cn2)CN(C2CCN(C(=O)c3ccc(C(F)(F)F)c(F)c3)CC2)C1 , what pIC50 was observed with Tyrosine-protein kinase JAK2 (Homo sapiens, UniProt O60674)?
7.00 to 7.30

Given the entry N#CCC(C1CCCC1)n1cc(-c2ccnc(Nc3ccc(-n4cccn4)cc3)n2)cn1 (racemic) , what pIC50 was observed with Tyrosine-protein kinase JAK2 (Homo sapiens, UniProt O60674)?
> 7.00

Given the entry N#CCC(C1CCCC1)n1cc(-c2ccnc(Nc3ccc(NC(=O)c4ccno4)cc3)n2)cn1 (racemic) , what pIC50 was observed with Tyrosine-protein kinase JAK2 (Homo sapiens, UniProt O60674)?
> 7.00

Given the entry O=C(NCCC(F)(F)F)c1noc2c1CN(c1ncnc3[nH]cnc13)CC2 , what pIC50 was observed with Tyrosine-protein kinase JAK2 (Homo sapiens, UniProt O60674)?
5.70 to 6.30

* * *

Collected from the literature: IC50 of various compounds toward Tyrosine-protein kinase JAK2 (Homo sapiens, UniProt O60674).

Endpoint output: IC50 of N#CCC1(n2cc(-c3ncnc4[nH]ccc34)cn2)CN(C2CCN(C(=O)c3ccc(-c4cccnc4)cc3F)CC2)C1 . Value?
≤ 10 nM

Endpoint output: IC50 of N#CCC1(n2ccc(-c3ncnc4[nH]ccc34)c2)CN(C2CCN(C(=O)c3ccc(C(F)(F)F)cc3F)CC2)C1 . Value?
10 to 50 nM

Endpoint output: IC50 of O=C1NCCCCOCc2cc(ccc2N2CCOCC2)Nc2nccc(n2)-c2ccc1cc2 . Value?
11 to 100 nM

Endpoint output: IC50 of CCOC(=O)CO[C@H]1CNc2cc(Nc3ncc(C(N)=O)c(NC4CC4)n3)ccc2OC1 . Value?
10 to 100 nM

* * *

Collected from the literature: IC50 of various compounds toward Tyrosine-protein kinase JAK2 (Homo sapiens, UniProt O60674).

Given the entry Cc1nn(C)c2cc(Nc3ncnc(-c4ccc(O[C@H]5CCN(C(=O)CO)C[C@H]5F)c(C#N)c4)n3)ccc12 , what IC50 was observed with Tyrosine-protein kinase JAK2 (Homo sapiens, UniProt O60674)?
511 nM

Given the entry CCC(CC)n1cc(-c2nc(-c3cnn(C[C@H](C)O)c3)cn3nccc23)cn1 , what IC50 was observed with Tyrosine-protein kinase JAK2 (Homo sapiens, UniProt O60674)?
10 to 100 nM

Given the entry CCOC(=O)c1nc(Cn2ccc3cnc(Nc4cnn(C)c4)nc32)cs1 , what IC50 was observed with Tyrosine-protein kinase JAK2 (Homo sapiens, UniProt O60674)?
1000 to 10000 nM

Given the entry CC(C)(O)Cc1nnc2cc(Nc3ncc(Cl)c(NC4CCN(c5ccc(C#N)cn5)CC4)n3)ccn12 , what IC50 was observed with Tyrosine-protein kinase JAK2 (Homo sapiens, UniProt O60674)?
4 nM

Given the entry N#CCC1(n2cc(-c3ncnc4[nH]ccc34)cn2)CN(C2CCN(Cc3c(F)cccc3Cl)CC2)C1 , what IC50 was observed with Tyrosine-protein kinase JAK2 (Homo sapiens, UniProt O60674)?
≤ 10 nM

Given the entry N#CCC1(n2cc(-c3ncnc4[nH]ccc34)cn2)CN(C2CCN(C(=O)c3cccc(Br)c3)CC2)C1 , what IC50 was observed with Tyrosine-protein kinase JAK2 (Homo sapiens, UniProt O60674)?
≤ 10 nM

Given the entry Cc1nc2cc(Nc3ncc(Cl)c(NC4CCN(c5ccc(C#N)cn5)CC4)n3)ccn2n1 , what IC50 was observed with Tyrosine-protein kinase JAK2 (Homo sapiens, UniProt O60674)?
7 nM

Given the entry CCc1nc2cnc3ccsc3c2n1[C@H]1CC[C@H](CC#N)CC1 , what IC50 was observed with Tyrosine-protein kinase JAK2 (Homo sapiens, UniProt O60674)?
≤ 1000 nM

Given the entry N#Cc1cc(-c2ncnc(Nc3ccc(N4CCN(C5COC5)CC4)cc3)n2)ccc1OC1CCC(F)(F)CC1 , what IC50 was observed with Tyrosine-protein kinase JAK2 (Homo sapiens, UniProt O60674)?
655 nM

Given the entry O=C(NC12CC(n3cnc4cnc5[nH]ccc5c43)(C1)C2)OCC1CC1 , what IC50 was observed with Tyrosine-protein kinase JAK2 (Homo sapiens, UniProt O60674)?
578 nM

Given the entry N#CCC(CC1CCNCC1)n1cc(-c2ccnc(Nc3ccc(N4CCOCC4=O)cc3)n2)cn1 (racemic) , what IC50 was observed with Tyrosine-protein kinase JAK2 (Homo sapiens, UniProt O60674)?
> 100 nM

Given the entry N#CCC1(n2cc(-c3c(C#N)cnc4[nH]ccc34)cn2)CN(C2CCN(C(=O)c3cc(F)cc(C#N)c3)CC2)C1 , what IC50 was observed with Tyrosine-protein kinase JAK2 (Homo sapiens, UniProt O60674)?
50 to 100 nM

Given the entry N#Cc1cc(-c2ccnc(Nc3ccc(N4CCOCC4)cc3)n2)ccc1F , what IC50 was observed with Tyrosine-protein kinase JAK2 (Homo sapiens, UniProt O60674)?
> 1000 nM

Given the entry N#Cc1cc(-c2ncnc(Nc3ccc(N4CCN(C5COC5)CC4)cc3)n2)ccc1O[C@H]1CCN(C(=O)NO)C[C@H]1F , what IC50 was observed with Tyrosine-protein kinase JAK2 (Homo sapiens, UniProt O60674)?
135 nM

Given the entry N#CCC1(n2cc(-c3ncnc4[nH]ccc34)cn2)CN(C2CCN(S(=O)(=O)c3cccc(C#N)c3)CC2)C1 , what IC50 was observed with Tyrosine-protein kinase JAK2 (Homo sapiens, UniProt O60674)?
> 100 nM

Given the entry C#Cc1ccc(C(=O)N2CC3(CC(N(C)c4ncnc5[nH]ccc45)C3)C2)c(F)c1 , what IC50 was observed with Tyrosine-protein kinase JAK2 (Homo sapiens, UniProt O60674)?
10 to 100 nM
